A collection of molecules and their measured ka
# system.under.test: T1, human ARG2 (Homo sapiens, UniProt P78540, E275H/R327K)
# T1 construct: His10 (after a GGG linker) (C); made in house; host or cells: E. coli BL21 (DE3)
# T1 sequence (P78540 23-354 E275H/R327K): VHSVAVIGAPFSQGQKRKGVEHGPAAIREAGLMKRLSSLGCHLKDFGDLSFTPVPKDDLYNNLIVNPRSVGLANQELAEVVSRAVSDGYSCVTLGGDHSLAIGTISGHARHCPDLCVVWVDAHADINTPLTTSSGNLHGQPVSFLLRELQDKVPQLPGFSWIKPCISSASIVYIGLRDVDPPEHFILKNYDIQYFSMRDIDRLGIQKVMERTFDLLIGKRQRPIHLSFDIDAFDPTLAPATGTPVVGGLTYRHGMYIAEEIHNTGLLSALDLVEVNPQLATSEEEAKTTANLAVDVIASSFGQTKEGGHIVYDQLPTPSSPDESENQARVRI
# test.description: Bio-Layer Interferometry (OctetRED) binding kinetics, human ARG2
# reported.conditions: Fab as analyte; streptavidin capture; analyte 1.8 to 120 nM; affinity-matured antibodies
# Text: The OctetRED (Pall ForteBio) instrument was used to assess the kinetic parameters of the interactions between C0020187 and recombinantly produced human ARG2, cynomolgus ARG2 and human ARG1. […] Any changes in binding at the biosensor tip result in a shift in interference pattern, which can be measured in real time. […] Typically, a defined concentration of the analyte species is brought into contact with the coupled ligand and any binding is detected as an increased in signal (association phase). […]
Please provide the amount together with its unit, number first.

molecule	ka
C0021097 Fab (antibody, V domains shown) VH: EVQLLESGGGLVQPGGSLRLSCAASGFTFSSYAMSWVRQAPGKGLEWVSAISYHPGSTYYADSVKGRFTISRDNSKNTLYLQMNSLRAEDTAVYYCARLRADLGLYMDLWGRGTLVTVSS VL: QSVLTQPPSVSAAPGQKVTISCSGSSSNIGNHYVSWYQQLPGTAPKLLIYNTFARPSGIPDRFSGSKSGTSATLGITGLQTGDEADYYCGTWDSSLSALVFGGGTKLTVL	295000 M⁻¹ s⁻¹

// next item, ka requested
[ask] // query ka value for entry C0021139: anti-ARG2 antibody, VH SEQ ID NO: 212, VL SEQ ID NO: 217 (antibody, listed as Homo sapiens, V domains shown, C0021139) VH: EVQLLESGGGLVQPGGSLRLSCAASGFTFQYDYQVWVRQAPGKGLEWVSAISGSGGSTYYADSVKGRFTISRDNSKNTLYLQMNSLRAEDTAVYYCARLRADLGLYMDLWGRGTLVTVSS VL: QSVLTQPPSVSAAPGQKVTISCSGSSSNIGNHYVSWYQQLPGTAPKLLIYDNSERTSGIPDRFSGSKSGTSATLGITGLQTGDEADYYCGTWDELTSNLVFGGGTKLTVL
[reply] 198000 M⁻¹ s⁻¹

Value source: patent US20220403048A1
